Where do these numbers come from? They come from patent US6855843B2.

- system: α4β7 (adhesion of RPMI cells to CS-1) (Homo sapiens, UniProt P13612+P26010)
- Construct: endogenous in cells
- Sequence (P13612 34-1032): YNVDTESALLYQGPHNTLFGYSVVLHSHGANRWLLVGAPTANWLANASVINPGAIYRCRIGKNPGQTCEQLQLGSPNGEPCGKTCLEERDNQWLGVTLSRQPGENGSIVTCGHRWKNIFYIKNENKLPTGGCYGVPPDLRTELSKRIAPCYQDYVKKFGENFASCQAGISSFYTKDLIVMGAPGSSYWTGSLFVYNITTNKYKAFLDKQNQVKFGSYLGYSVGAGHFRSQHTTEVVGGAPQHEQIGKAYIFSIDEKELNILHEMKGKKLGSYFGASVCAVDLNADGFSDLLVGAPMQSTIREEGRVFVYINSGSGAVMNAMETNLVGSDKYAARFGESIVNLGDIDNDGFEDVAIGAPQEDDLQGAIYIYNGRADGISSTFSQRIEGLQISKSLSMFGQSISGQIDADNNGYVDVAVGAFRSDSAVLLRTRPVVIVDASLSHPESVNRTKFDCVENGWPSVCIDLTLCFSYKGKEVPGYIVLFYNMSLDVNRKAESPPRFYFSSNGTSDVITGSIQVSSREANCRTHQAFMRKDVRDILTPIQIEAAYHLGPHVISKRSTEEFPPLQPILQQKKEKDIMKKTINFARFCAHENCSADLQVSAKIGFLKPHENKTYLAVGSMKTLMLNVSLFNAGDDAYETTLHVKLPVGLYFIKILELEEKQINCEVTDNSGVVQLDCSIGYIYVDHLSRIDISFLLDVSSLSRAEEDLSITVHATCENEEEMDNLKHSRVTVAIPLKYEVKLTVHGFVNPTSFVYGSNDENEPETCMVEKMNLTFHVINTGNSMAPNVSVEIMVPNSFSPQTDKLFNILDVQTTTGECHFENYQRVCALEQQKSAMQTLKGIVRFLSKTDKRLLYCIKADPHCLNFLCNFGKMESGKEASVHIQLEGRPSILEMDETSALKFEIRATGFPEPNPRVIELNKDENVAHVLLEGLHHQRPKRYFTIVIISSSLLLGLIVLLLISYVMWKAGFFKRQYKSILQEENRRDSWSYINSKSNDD
- Sequence (P26010 20-798): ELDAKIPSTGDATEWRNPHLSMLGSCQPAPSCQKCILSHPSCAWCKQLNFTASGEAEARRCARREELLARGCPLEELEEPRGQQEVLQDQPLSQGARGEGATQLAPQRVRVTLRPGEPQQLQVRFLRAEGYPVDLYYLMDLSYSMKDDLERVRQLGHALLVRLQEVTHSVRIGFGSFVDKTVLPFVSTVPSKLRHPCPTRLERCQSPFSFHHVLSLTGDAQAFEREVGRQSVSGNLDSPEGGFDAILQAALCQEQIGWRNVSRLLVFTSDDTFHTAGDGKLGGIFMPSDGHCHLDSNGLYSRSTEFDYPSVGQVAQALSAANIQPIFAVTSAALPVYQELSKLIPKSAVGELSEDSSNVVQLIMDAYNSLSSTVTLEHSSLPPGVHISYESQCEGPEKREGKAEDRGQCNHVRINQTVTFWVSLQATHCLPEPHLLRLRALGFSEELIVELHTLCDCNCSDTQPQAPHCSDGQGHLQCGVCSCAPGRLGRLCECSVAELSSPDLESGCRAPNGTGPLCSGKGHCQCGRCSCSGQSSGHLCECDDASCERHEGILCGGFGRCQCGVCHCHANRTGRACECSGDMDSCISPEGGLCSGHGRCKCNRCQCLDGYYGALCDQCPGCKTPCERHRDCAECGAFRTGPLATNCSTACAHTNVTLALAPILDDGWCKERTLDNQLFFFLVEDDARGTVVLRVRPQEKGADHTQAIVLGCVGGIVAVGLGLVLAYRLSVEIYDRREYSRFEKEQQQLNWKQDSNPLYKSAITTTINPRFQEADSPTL
- experiment summary: RPMI-CS-1 cell adhesion assay
- condition: adhesion of RPMI B-cell line (expresses α4β7) to CS-1 peptide coated microwells; read-out: RPMI-CS-1 IC50 value range
- Method: RPMI-CS-1 Cell Adhesion Assay: The test compounds were added in increasing concentrations to RPMI cells and then the cell-compound mixture was added to CS-1 coated microwells. The plates were incubated, washed and the percentage of attached cells were quantitated. The CS-1 derived peptide, […], and the scrambled control peptide, […], were synthesized at Tanabe Research Laboratories, USA, Inc. on a Beckman 990 synthesizer using t-Boc methodology. […]
// reported IC50 for each item listed

These solved cases illustrate the format of a correct answer.
# compound, IC50
rows = [
    ("COc1cc(OCc2c(Cl)cccc2Cl)cc(OC)c1-c1ccc(C[C@H](NC(=O)c2c(Cl)cccc2Cl)C(=O)O)cc1", "1000 to 5000 nM"),
    ("O=C(N[C@@H](Cc1ccc(-c2ccccn2)cc1)C(=O)O)c1c(Cl)cccc1Cl", "300 to 1000 nM"),
    ("O=C(O)C=Cc1ccccc1-c1ccc(C[C@H](NC(=O)c2c(Cl)cccc2Cl)C(=O)O)cc1 (mixture of isomers)", "300 to 1000 nM"),
]

I would be grateful if you could share the reported IC50 for CC(O)c1cc(C[C@H](NC(=O)c2c(Cl)cccc2Cl)C(=O)O)ccc1-c1ccccc1 (some centres unmarked) . 300 to 1000 nM

Please do the same for CN(C)C(=O)c1ccccc1-c1ccc(C[C@H](NC(=O)c2c(Cl)cccc2Cl)C(=O)O)cc1 as well. 300 to 1000 nM

Please do the same for CCCN1CCN(Cc2cc(OC)c(-c3ccc(C[C@H](NC(=O)c4c(Cl)cccc4Cl)C(=O)O)cc3)c(OC)c2)CC1 as well. < 300 nM

Please do the same for CN(C)c1ccccc1-c1ccc(C[C@H](NC(=O)c2c(Cl)cccc2Cl)C(=O)O)cc1 as well. < 300 nM

Please do the same for COc1cc(Cl)cc(OC)c1-c1ccc(C[C@H](NC(=O)c2c(Cl)cccc2Cl)C(=O)O)cc1 as well. < 300 nM

Please do the same for COC(=O)Nc1cc(OC)c(-c2ccc(C[C@H](NC(=O)c3c(Cl)cccc3Cl)C(=O)O)cc2)c(OC)c1 as well. < 300 nM

Please do the same for COc1ccccc1-c1ccc(C[C@H](NC(=O)c2ccc(Cl)cc2Cl)C(=O)O)cc1 as well. 1000 to 5000 nM

Please do the same for COc1cccc(O)c1-c1ccc(C[C@H](NC(=O)c2c(Cl)cccc2Cl)C(=O)O)cc1 as well. < 300 nM

Please do the same for COc1cccc(OC)c1-c1ccc(C[C@H](NC(=O)c2c(Cl)cccc2Cl)C(=O)O)cc1NS(C)(=O)=O as well. < 300 nM

Please do the same for NC(=O)c1ccccc1-c1ccc(C[C@H](NC(=O)c2c(Cl)cccc2Cl)C(=O)O)cc1 as well. 300 to 1000 nM

Please do the same for N#CCOc1cccc(OCC#N)c1-c1ccc(C[C@H](NC(=O)c2c(Cl)cccc2Cl)C(=O)O)cc1 as well. < 300 nM

Please do the same for O=C(NCc1ccccc1)c1ccccc1-c1ccc(C[C@H](NC(=O)c2c(Cl)cccc2Cl)C(=O)O)cc1 as well. 1000 to 5000 nM
